Test system: PC-3 prostate
method.notes: NCI-60 one-dose screen, 48 h
setup.conditions: 10 µM unless noted
Compounds without any hit were thinned out: in the full panel of roughly 83,000, 20% have a hit. Activity calls are given as the source filed them. How the source made its calls: active means growth percent below 10; inactive means the rest.
Pick one: YES for active, NO for inactive

Some solved entries appear below for comparison.
>  <compound>
COC(=O)/C(CCC=C(C)C)=C1\[C@@H](OC(C)=O)C[C@@]2(C)[C@H]1C/C(=N/O)[C@H]1[C@@]3(C)CC/C(=N\O)[C@@H](C)[C@@H]3CC[C@@]12C

>  <class>
NO

$$$$
>  <compound>
COc1cc(/C=C2\C(=O)N(CCCOc3cc(O)c4c(=O)cc(-c5ccccc5)oc4c3)c3ccccc32)cc(OC)c1O

>  <class>
NO

$$$$
>  <compound>
Cc1nc2ccccc2c(/C=C/c2ccc(F)cc2)c1C(=O)/C=C/c1ccccc1

>  <class>
NO

$$$$
>  <compound>
CC(C)(Sc1cc(C(C)(C)C)c(O)c(C(C)(C)C)c1)Sc1cc(C(C)(C)C)c(OC(=O)CCC(=O)O)c(C(C)(C)C)c1

>  <class>
NO

$$$$
>  <compound>
O=C(Oc1ccc2c(c1)sc1nc(-c3ccccc3)[nH]c(=O)c12)C(F)(F)F

>  <class>
NO

$$$$
>  <compound>
C=CC(=O)Nc1cccc(Oc2nccc(Nc3nnc(-c4ccc(Br)cc4)s3)n2)c1

>  <class>
NO

$$$$

Input: I'd appreciate the recorded outcome for "O=C(/C=C/c1cn(-c2ccccc2)nc1-c1ccccc1)CCC(=O)NO" from this test.
Output: NO

Input: // param item: "COc1ccc(Oc2ccc(/C=C/C(=O)c3ccc(OC)c(OC)c3)cc2)cc1" ; yields the recorded call
Output: NO

Input: Given "N=C(N)c1ccc(OCCSCCOc2ccc(C(=N)N)cc2)cc1" , state the outcome it received in this test.
Output: NO

====

System: SK-MEL-5 melanoma
method.notes: NCI-60 one-dose screen, 48 h
setup.conditions: 10 µM unless noted
The panel holds about 83,000 compounds, 20% with a hit somewhere; the sample as a whole holds those more often. Active and inactive are the calls of the source. How the source made its calls: active means growth percent below 10; inactive means the rest.
Give your call using only these classes: active, inactive

>  <compound>
Cn1cc(-c2csc(-c3cn(C)c4ccccc34)n2)c2cnccc21

>  <class>
active

$$$$

Input: // param item: CS(=O)/C(C#N)=C\C=C\c1cccc(Cl)c1 (stereo not drawn) ; yields the recorded call
Output: inactive

Input: What did this assay record as the result for "Cc1nc([P+](c2ccccc2)(c2ccccc2)c2ccccc2)c(N2CCCCC2)o1" ?
Output: active

====

Test system: NCI-H23 lung
method.notes: NCI-60 one-dose screen, 48 h (100 = growth as untreated, 0 = no growth, -100 = all killed)
setup.conditions: 10 µM unless noted
Compounds without any hit were thinned out: in the full panel of roughly 83,000, 20% have a hit.
property: growth (%)
One number for each entry, in %.

>  <compound>
CN(C)Cc1ccc(NC(=O)c2cncc(C#Cc3cnc(N)c4ncccc34)c2)cc1C(F)(F)F

>  <property>
growth

>  <reading.unit>
%

>  <result.number>
42.1

$$$$
>  <compound>
C=C1C(=O)O[C@H]2[C@H]1CC/C(COC(=O)NCc1ccc(Cn3c(=O)sn(-c4ccc(I)cc4)c3=O)cc1)=C\CC[C@@]1(C)O[C@@H]21

>  <property>
growth

>  <reading.unit>
%

>  <result.number>
94.8

$$$$
>  <compound>
COc1cccc(-c2cn3nc(-c4cn(C)c5ccccc45)sc3n2)c1

>  <property>
growth

>  <reading.unit>
%

>  <result.number>
90

$$$$

Could you tell me growth for each of these compounds? They are listed below.
1. CC(O)Cc1c[nH]c(=O)[nH]c1=O (stereo not drawn)
2. CC1(C)CC[C@]23CC[C@]4(C)[C@H](CC[C@@H]5[C@@]6(C)CCNCC(C)(C)[C@@H]6CC[C@]54C)[C@H]2[C@H]1OC3
3. COc1ccc(/C=C/C(c2cc(OC)c(OC)c(OC)c2)n2cncn2)cc1O (stereo not drawn)
4. O=C(Nc1cc(Cl)cc(Cl)c1)Oc1c(Cl)c(Cl)c(Cl)c(Cl)c1Cl
5. COc1cc2ncnc(Nc3ccc(S(=O)(=O)Nc4nccs4)cc3)c2cc1OCCCN1CCCC1

Output:
[102, 95.6, 41.5, 57, 99.8]

====

Test system: MDA-MB-231 breast
method.notes: NCI-60 one-dose screen, 48 h (100 = growth as untreated, 0 = no growth, -100 = all killed)
setup.conditions: 10 µM unless noted
Compounds without any hit were thinned out: in the full panel of roughly 83,000, 20% have a hit. Calls of active or inactive are those of the source. Rule for the calls: active = growth percent below 10; inactive = the rest.
property: growth

Some solved cases for reference:
>  <compound>
COc1ccc(C2CC(c3ccccc3)=NN2C(=O)c2cc(OC)c(OC)c(OC)c2)cc1O (configuration not stated)

>  <result>
8.45% (active)

$$$$
>  <compound>
COc1ccc(-c2nc3ccc(C)cc3c3c2c(=O)n(C)c(=O)n3C)cc1OC

>  <result>
102% (inactive)

$$$$
>  <compound>
CCN(CCNc1ccc(C)c2sc3cc(Cl)ccc3c(=O)c12)CC(C)(C)O

>  <result>
32% (inactive)

$$$$
>  <compound>
CCN(CC)CCn1c2ccc(OC)cc2c2sc3cc(O)ccc3c(=O)c21

>  <result>
54.1% (inactive)

$$$$
>  <compound>
Cn1c(=O)c2[nH]c(SC/C(=N/O)c3ccc(Br)cc3)nc2n(C)c1=O

>  <result>
-5.9% (active)

$$$$
>  <compound>
C=C1C(=O)O[C@@H]2C3C(=C(C)CC[C@@H]12)CC1O[C@]13C (some centres not stated)

>  <result>
93.5% [6.75 µM] (inactive)

$$$$

Batch: growth for all items listed.
1. CCOC(=O)c1[nH]cc2c1CCc1sc(Nc3ccccn3)nc1-2
2. CCCCn1c(NC(C)=O)c(S(=O)(=O)c2ccccc2)c2nc3ccccc3nc21
3. O=C(Nc1ccccc1O)c1ccc(CNc2ccnc(C(F)(F)F)c2)cc1
4. CC(C)(C)c1ccc(C(=O)N/N=C/c2ccc(O)cc2O)cc1
5. Fc1ccc(/C=C/[C@@H]2C[C@@H](F)CCO2)cc1
6. Cc1ccc(S(=O)(=O)N2CCCN(c3nc(-c4ccccc4)nc4nc(-c5ccccc5)oc34)CC2)cc1

Output:
82.3% (inactive)
109% (inactive)
62.9% (inactive)
35.1% (inactive)
98.2% (inactive)
96.8% (inactive)

====

System: A498 renal
method.notes: NCI-60 one-dose screen, 48 h
setup.conditions: 10 µM unless noted
Description: Growth inhibition of the A498 human tumor cell line is measured as a screen for anti-cancer activity. Cells are grown in 96 well plates and exposed to the test compound for 48 hours. Compounds are tested at a single concentration, which is 10^-5 M for most compounds. The reported endpoint is percent growth (GI% or GIPRCNT), where numbers from 0 - 100% represent growth inhibition, and numbers from -100% - 0 represent cell death. For example, a value of 40 represents 60% growth inhibition. […]
The panel holds about 83,000 compounds, 20% with a hit somewhere; the sample as a whole holds those more often. Activity calls are given as the source filed them. Rule for the calls: active = growth percent below 10; inactive = the rest.
Can you answer with just one of these options? y (active), n (inactive)

As a guide, the following entries are already answered.
>  <compound>
CN(C)CCC(CCN(C)C)(C(=O)O)c1ccccc1

>  <class>
n

$$$$
>  <compound>
C=C1C(=O)O[C@H]2[C@H]1CC/C(CNC(=O)Cc1c[nH]c3ccccc13)=C\CC[C@@]1(C)O[C@@H]21

>  <class>
n

$$$$
>  <compound>
C=C1CC[C@@H]2C(C)(C)[C@H](O)CC[C@@]2(C)[C@@H]1COc1ccc2ccc(=O)oc2c1

>  <class>
n

$$$$
>  <compound>
CN1c2ccccc2S(=O)(=O)n2c(SCC(=O)Nc3nc4ccc(F)cc4s3)nnc21

>  <class>
n

$$$$
>  <compound>
Cc1cc2oc(/C=C/c3ccccc3)cc(=O)c2c(C)c1Cl

>  <class>
n

$$$$
>  <compound>
CCOC(=O)c1c(NC(=O)c2ccccc2)sc2c3c(ccc12)OCN(C)C3

>  <class>
n

$$$$
>  <compound>
CCOC(=O)CC[C@H](NC(=O)c1ccc(N(C)Cc2cnc3nc(N)nc(N)c3n2)c2ccccc12)C(=O)OCC

>  <class>
n

$$$$
>  <compound>
COC1C(O)CC(OC2CC(OC3CC(O[C@@H]4C(=O)c5c(cc6cc(OC7CC(OC8CC(O)C(O)C(C)O8)C(O)C(C)O7)c(C)c(O)c6c5O)CC4[C@H](OC)[C@@H](O)C(C)=O)OC(C)C3O)OC(C)C2O)OC1C (stereo not given in full)

>  <class>
y

$$$$
>  <compound>
Nc1nc2ccccc2c2c(=O)c3cc(Cl)ccc3sc12

>  <class>
n

$$$$
>  <compound>
C#CCOc1ccc2nc(CCl)c(Cl)c(Nc3cccc(C(F)(F)F)c3)c2c1

>  <class>
n

$$$$

Input: Dear all, I need the recorded test outcome for "CSc1ccc2c3c(n(CCCn4ccnc4)c(=O)c2c1)-c1ccccc1C3=O" , thank you.
Output: n

Input: Tell me the assay call for "S=c1ccnc[nH]1" please.
Output: n

Input: Would you mind telling me which call this test gave "O=C(O)CCCCCCCCCCN1C(=O)/C(=C2/C(=O)N(CC(=O)O)c3ccc(Br)cc32)SC1=S" ?
Output: n

Input: Identify the outcome logged in this assay for the compound shown: "COc1ccc(/C=C2\CN(C(=O)C(Cl)Cl)C/C(=C\c3ccc(OC)c(OC)c3)C2=O)cc1OC"
Output: y

Input: Please indicate how the test categorized "O=S(=O)(Nc1ccc2ccccc2c1)c1ccc(-c2cnc(C3CC3)o2)cc1" .
Output: y

Cited source for all entries: PubChem BioAssay (NCI)
